Tested on: HeLa Kyoto;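 further: HeLa Kyoto cells synchronized by double thymidine or nocodazole block, proteins quantified by TMT10plex mass spectrometry, three independent biological replicates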
PROTOCOL DESCRIPTION: melting temperature (median over replicates), in situ; higher = more thermally stable
RECORDED CONDITIONS: cell cycle stage: mitosis
EXPERIMENTAL READOUT: melting temperature
Hi, when you answer, please include the unit after the number. Thanks!

In the examples that follow, each entry is paired with its recorded melting temperature.
>  <SEQUENCE STRING>
MSSPQAPEDGQGCGDRGDPPGDLRSVLVTTVLNLEPLDEDLFRGRHYWVPAKRLFGGQIVGQALVAAAKSVSEDVHVHSLHCYFVRAGDPKLPVLYQVERTRTGSSFSVRSVKAVQHGKPIFICQASFQQAQPSPMQHQFSMPTVPPPEELLDCETLIDQYLRDPNLQKRYPLALNRIAAQEVPIEIKPVNPSPLSQLQRMEPKQMFWVRARGYIGEGDMKMHCCVAAYISDYAFLGTALLPHQWQHKVHFMVSLDHSMWFHAPFRADHWMLYECESPWAGGSRGLVHGRLWRQDGVLAVTCAQEGVIRVKPQVSESKL [ACOT8]

>  <melting temperature>
53.8 °C

$$$$
>  <SEQUENCE STRING>
MAAAAPNAGGSAPETAGSAEAPLQYSLLLQYLVGDKRQPRLLEPGSLGGIPSPAKSEEQKMIEKAMESCAFKAALACVGGFVLGGAFGVFTAGIDTNVGFDPKDPYRTPTAKEVLKDMGQRGMSYAKNFAIVGAMFSCTECLIESYRGTSDWKNSVISGCITGGAIGFRAGLKAGAIGCGGFAAFSAAIDYYLR [TIMM22]

>  <melting temperature>
56.3 °C

$$$$
>  <SEQUENCE STRING>
MEEASEGGGNDRVRNLQSEVEGVKNIMTQNVERILARGENLEHLRNKTEDLEATSEHFKTTSQKVARKFWWKNVKMIVLICVIVFIIILFIVLFATGAFS [VAMP8]

>  <melting temperature>
55.5 °C

$$$$

Give melting temperature for each listed item.
1. MRESALERGPVPEAPAGGPVHAVTVVTLLEKLASMLETLRERQGGLARRQGGLAGSVRRIQSGLGALSRSHDTTSNTLAQLLAKAERVSSHANAAQERAVRRAAQVQRLEANHGLLVARGKLHVLLFKEEGEVPASAFQKAPEPLGPADQSELGPEQLEAEVGESSDEEPVESRAQRLRRTGLQKVQSLRRALSGRKGPAAPPPTPVKPPRLGPGRSAEAQPEAQPALEPTLEPEPPQDTEEDPGRPGAAEEALLQMESVA [PRKCDBP]
2. MMAIRELKVCLLGDTGVGKSSIVCRFVQDHFDHNISPTIGASFMTKTVPCGNELHKFLIWDTAGQERFHSLAPMYYRGSAAAVIVYDITKQDSFYTLKKWVKELKEHGPENIVMAIAGNKCDLSDIREVPLKDAKEYAESIGAIVVETSAKNAINIEELFQGISRQIPPLDPHENGNNGTIKVEKPTMQASRRCC [RAB31]
3. MDSALSDPHNGSAEAGGPTNSTTRPPSTPEGIALAYGSLLLMALLPIFFGALRSVRCARGKNASDMPETITSRDAARFPIIASCTLLGLYLFFKIFSQEYINLLLSMYFFVLGILALSHTISPFMNKFFPASFPNRQYQLLFTQGSGENKEEIINYEFDTKDLVCLGLSSIVGVWYLLRKHWIANNLFGLAFSLNGVELLHLNNVSTGCILLGGLFIYDVFWVFGTNVMVTVAKSFEAPIKLVFPQDLLEKGLEANNFAMLGLGDVVIPGIFIALLLRFDISLKKNTHTYFYTSFAAYIFGLGLTIFIMHIFKHAQPALLYLVPACIGFPVLVALAKGEVTEMFSYEESNPKDPAAVTESKEGTEASASKGLEKKEK [HM13]
4. MTSALENYINRTVAVITSDGRMIVGTLKGFDQTINLILDESHERVFSSSQGVEQVVLGLYIVRGDNVAVIGEIDEETDSALDLGNIRAEPLNSVAH [LSM8]
5. MPILKQLVSSSVHSKRRSRADLTAEMISAPLGDFRHTMHVGRAGDAFGDTSFLNSKAGEPDGESLDEQPSSSSSKRSLLSRKFRGSKRSQSVTRGEREQRDMLGSLRDSALFVKNAMSLPQLNEKEAAEKGTSKLPKSLSSSPVKKANDGEGGDEEAGTEEAVPRRNGAAGPHSPDPLLDEQAFGDLTDLPVVPKATYGLKHAESIMSFHIDLGPSMLGDVLSIMDKEEWDPEEGEGGYHGDEGAAGTITQAPPYAVAAPPLARQEGKAGPDLPSLPSHALEDEGWAAAAPSPGSARSMGSHTTRDSSSLSSCTSGILEERSPAFRGPDRARAAVSRQPDKEFSFMDEEEEDEIRV [CDC42EP4]

Output line:
1: 52.8 °C; 2: 53.9 °C; 3: 59.8 °C; 4: 57.5 °C; 5: 51.8 °C
